Target: Phosphodiesterase; PDE3 & PDE4 (Homo sapiens) (UniProt P27815+Q14432+Q08499+Q07343+Q13370+Q08493)
Assay: Inhibitory activity toward Phosphodiesterase isolated from rabbit lung
Assay type: protein assay
Conditions: Oryctolagus cuniculus; target entry is the homologue from another species
Readout label: Inhibitory activity

Recorded Inhibitory activity, per entry:
>>> reported_result("Cc1cc(C)n2nc(SCc3ccncc3)nc2n1")
0.8
>>> reported_result("Cc1cc(C)n2nc(SCCc3ccccc3)nc2n1")
2.5
>>> reported_result("Cc1cc(NN(C)C)n2nc(SCc3ccccc3)nc2n1")
5.3
>>> reported_result("Cc1cc(C)n2nc(SC(C)C)nc2n1")
0.1
>>> reported_result("Cc1cc(S)n2nc(SCc3ccccc3)nc2n1")
1.37

A: CCOC(=O)c1cnc2nc(SCc3ccccc3)nn2c1N1CCOCC1
B: Cc1cc(N2CCCCC2)n2nc(SCc3ccccc3)nc2n1
Hi, I'm comparing two records. Which one has the lower Inhibitory activity, A or B ? Provide the label of your selected option as the answer.
A
